tested on: Rattus norvegicus; test: Antihyperlipidemic activity in Triton WR-1339-induced hyperlipidemic rat assessed as decrease in plasma phospholipid level at 100 mg/kg, po relative to control; type: functional; design: scale not given: the % may be the effect or the level left
As shown below, each of these compounds has a reported Activity value.

Data request: Reported Activity, compound CCOC(=O)COc1ccc(C(c2cn(C)c3ccccc23)c2cn(C)c3ccccc23)cc1 : ____
Data returned: 12%

Data request: Reported Activity, compound CCOC(=O)COc1ccc(C(c2cn(CC)c3ccccc23)c2cn(CC)c3ccccc23)cc1 : ____
Data returned: 6%

Data request: Reported Activity, compound CCOC(=O)C(C)(C)Oc1ccc(C(c2cn(C)c3ccccc23)c2cn(C)c3ccccc23)cc1 : ____
Data returned: 9%

New cases:
Data request: Reported Activity, compound CCOC(=O)C(C)Oc1ccc(C(c2c(C)n(C)c3ccccc23)c2c(C)n(C)c3ccccc23)cc1 (centres undefined) : ____
Data returned: 10%

meta.source: ChEMBL document CHEMBL2029264
